Below is a list of entries, each paired with its recorded IC50 value.
Tested on: KU1919.1
Test: Cell Titer Glo (CTG) proliferation assay, KU1919
Format: cell-based
Conditions: Homo sapiens, KU-19-19; KU1919.1 cells, 72.0 hrs.; read-out: AVE CTG Proliferation KU1919.1 72.0 hrs.
Description: Seed cells in 40 μL of cell culture media into each well of 384-well cell culture plate, spin them at room temperature at 1,000 RPM for 1 minute and then transfer the plates into 37° C. 5% CO2 incubator overnight. Next day, treat cells with 40 nL of diluted compound and return to incubator. After compound treatment for 3 days, Add 30 μL of CellTiter-Glo reagent (Promega) into each well to be detected. Then place the plates at room temperature for 30 min followed by reading on EnVision. […]
parameterMeasured: IC50

NC1(C(=O)N[C@@H](CCN2CCN(C(=O)CN3CCC(OC4CCN(C(=O)[C@H](NC(=O)c5cc(C6CCCN(C(=O)C7CC7)C6)ccc5F)C5CCCCC5)CC4)CC3)CC2)c2ccc(Cl)cc2)CCN(c2ncnc3[nH]ccc23)CC1 (some centres unmarked): 1 to 5 µM
NC1(C(=O)N[C@@H](CCN2CCN(C(=O)CN3CCC(OC4CCN(C(=O)[C@H](NC(=O)c5cccc(C6CN(C(=O)CNCc7ccc(F)cc7F)C6)c5)C5CCCCC5)CC4)CC3)CC2)c2ccc(Cl)cc2)CCN(c2ncnc3[nH]ccc23)CC1: 0.5 to 1 µM

###

System: KU1919.1
Assay: Cell Titer Glo (CTG) proliferation assay, KU1919
Assay type: cell-based
Details: Homo sapiens, KU-19-19; KU1919.1 cells, 72.0 hrs.; read-out: AVE CTG Proliferation KU1919.1 72.0 hrs.
Method: Seed cells in 40 μL of cell culture media into each well of 384-well cell culture plate, spin them at room temperature at 1,000 RPM for 1 minute and then transfer the plates into 37° C. 5% CO2 incubator overnight. Next day, treat cells with 40 nL of diluted compound and return to incubator. After compound treatment for 3 days, Add 30 μL of CellTiter-Glo reagent (Promega) into each well to be detected. Then place the plates at room temperature for 30 min followed by reading on EnVision. […]
parameterMeasured: IC50

NC1(C(=O)N[C@@H](CCN2CCN(C(=O)CN3CCC(OC4CCN(C(=O)[C@H](NC(=O)c5ccc(C6CN(C(=O)C7CC7)C6)cc5)C5CCCCC5)CC4)CC3)CC2)c2ccc(Cl)cc2)CCN(c2ncnc3[nH]ccc23)CC1: 1000 to 5000 nM
C[C@@H]1C[C@@H](O)c2ncnc(N3CCN(C(=O)[C@@H](CCN4CCC(CN5CCN(C(=O)[C@H](NC(=O)c6cccc(C7CCCN(C(=O)CNC8CC8)C7)c6)C6CCCCC6)CC5)CC4)c4ccc(Cl)cc4)CC3)c21 (some centres unmarked): 500 to 1000 nM
NC1(C(=O)N[C@@H](CCN2CCN(C(=O)CN3CCC(OC4CCN(C(=O)[C@H](NC(=O)c5cc(C6CN(C(=O)CNCc7ccc(F)cc7F)C6)ccc5F)C5CCCCC5)CC4)CC3)CC2)c2ccc(Cl)cc2)CCN(c2ncnc3[nH]ccc23)CC1: 500 to 1000 nM
C[C@@H]1C[C@@H](O)c2ncnc(N3CCN(C(=O)C(CN4CCC(CN5CCN(C(=O)[C@H](NC(=O)c6cccc([C@H]7CCCN(C(=O)CNC8CC8)C7)c6)C6CCCCC6)CC5)CC4)c4ccc(Cl)cc4)CC3)c21 (some centres unmarked): 500 to 1000 nM
C[C@@H]1C[C@@H](O)c2ncnc(N3CCN(C(=O)[C@H](CNCCNC(=O)CN4CCC(CN5CCN(C(=O)c6cccc(C7CCCN(C(=O)CNCc8ccc(F)cc8F)C7)c6)CC5)CC4)c4ccc(Cl)cc4)CC3)c21 (some centres unmarked): > 10000 nM
NC1(C(=O)N[C@@H](CCN2CCN(C(=O)CN3CCC(OC4CCN(C(=O)c5cccc(C6CCCN(C(=O)CNC7CC7)C6)c5)CC4)CC3)CC2)c2ccc(Cl)cc2)CCN(c2ncnc3[nH]ccc23)CC1 (some centres unmarked): > 10000 nM
C[C@@H]1C[C@@H](O)c2ncnc(N3CCN(C(=O)[C@H](CNCCNC(=O)CNC45CCC(CN6CCN(C(=O)[C@H](NC(=O)c7cccc(C8CCCN(C(=O)C9CC9)C8)c7)C7CCCCC7)CC6)(CC4)OC5)c4ccc(Cl)cc4)CC3)c21 (some centres unmarked): > 10000 nM
C[C@@H]1C[C@@H](O)c2ncnc(N3CCN(C(=O)[C@H](CN4CCC(OC5CCN(C(=O)[C@H](NC(=O)c6cccc(C7CCCN(C(=O)C89CC(C8)C9)C7)c6F)C6CCCCC6)CC5)CC4)c4ccc(Cl)cc4)CC3)c21 (some centres unmarked): 1000 to 5000 nM
NC1(C(=O)N[C@@H](CCN2CCC(OC3CCN(C(=O)c4c(F)cc(-c5ccccc5)cc4F)CC3)CC2)c2ccc(Cl)cc2)CCN(c2ncnc3[nH]ccc23)CC1: 1000 to 5000 nM
NC1(C(=O)N[C@@H](CCOCCN2CCC(OC3CCN(C(=O)[C@H](NC(=O)c4cccc(C5CCCN(C(=O)CNC6CC6)C5)c4)C4CCCCC4)CC3)CC2)c2ccc(Cl)cc2)CCN(c2ncnc3[nH]ccc23)CC1 (some centres unmarked): 1000 to 5000 nM
CCc1cccc(-c2cnc(C(=O)N3CCN(CC4CCN(CC(=O)NCCNC[C@@H](C(=O)N5CCN(c6ncnc7c6[C@H](C)C[C@H]7O)CC5)c5ccc(Cl)cc5)CC4)CC3)c(NC(=O)CN3CCOCC3)c2)c1: 1000 to 5000 nM
CCc1cccc(-c2cnc(C(=O)N3CCC(OC4CCN(CC(=O)NCCNC[C@@H](C(=O)N5CCN(c6ncnc7c6[C@H](C)C[C@H]7O)CC5)c5ccc(Cl)cc5)CC4)CC3)c(N)c2)c1: 5000 to 10000 nM
NC1(C(=O)N[C@@H](CCN2CCC(OC3CCN(C(=O)[C@H](NC(=O)c4cccc(C5CCCN(C(=O)CNCc6ccc(F)cc6F)C5)c4)C4CCCCC4)CC3)CC2)c2ccc(Cl)cc2)CCN(c2ncnc3[nH]ccc23)CC1 (some centres unmarked): 500 to 1000 nM
NC1(C(=O)N[C@@H](CCN2CCC(OC3CCN(C(=O)[C@H](NC(=O)c4cccc(C5CCCN(C(=O)C6CC6)C5)c4)C4CCCCC4)CC3)CC2)c2ccc(Cl)cc2)CCN(c2ncnc3[nH]ccc23)CC1 (some centres unmarked): 1000 to 5000 nM
NC1(C(=O)N[C@@H](CCN2CCN(C(=O)CN3CCC(OC4CCN(C(=O)[C@H](NC(=O)c5cccc(C6CC6)c5F)C5CCCCC5)CC4)CC3)CC2)c2ccc(Cl)cc2)CCN(c2ncnc3[nH]ccc23)CC1: 1000 to 5000 nM
CCc1cccc(-c2cnc(C(=O)N3CCN(CC4CCN(CC(=O)NCCNC[C@@H](C(=O)N5CCN(c6ncnc7c6[C@H](C)C[C@H]7O)CC5)c5ccc(Cl)cc5)CC4)CC3)c(NC(=O)CNCc3ccncn3)c2)c1: 1000 to 5000 nM
NC1(C(=O)N[C@@H](CCN2CCC(OC3CCN(C(=O)[C@H](NC(=O)c4cccc(C5CC5)c4F)C4CCCCC4)CC3)CC2)c2ccc(Cl)cc2)CCN(c2ncnc3[nH]ccc23)CC1: 1000 to 5000 nM
